B1: CD69 (parent)
chain: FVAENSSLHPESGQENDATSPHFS

Variants of: B1
Run Description: protein stability index of a GFP-peptide fusion (GPS, HEK-293T) (PSI 1-6); higher = more stable;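 further: lentivirally expressed fusions sorted by FACS into six bins by GFP to DsRed ratio, PSI derived from sequencing read proportions per bin multiplied by bin number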
Protocol Conditions: c terminus: a fixed tail appended
Endpoint Name: protein stability index

1) E4D :: 2.61
2) F1Q :: 5.65
3) N5G :: 3.21
4) S6M :: 2.55
5) L8Q :: 3.62
6) F1H :: 4.98
7) F1R :: 5.12
8) N5S :: 2.57
9) P21K :: 3.25
10) N5W :: 1.99
11) S12R :: 2.38
12) N16L :: 2.81
13) G13W :: 1.97
14) S12G :: 2.9
15) S12I :: 2.86
16) F23G :: 3.58
17) P10K :: 2.98
18) H22M :: 2.71
19) N5Y :: 2.87
20) A18N :: 3.07
21) H9P :: 3.6
22) E11R :: 2.12
23) Q14D :: 3.93
24) H22Q :: 3.76
25) N5H :: 2.61
26) P10C :: 2.84
27) S7Y :: 1.93
28) S24L :: 3.04
29) F23T :: 3.61
30) V2H :: 4
31) A18W :: 2.24
32) V2Q :: 4.86
33) F1E :: 5.62
34) P10F :: 2.48
35) V2P :: 5.46
36) H9C :: 3.15
37) A3V :: 3.43
38) D17E :: 2.82
39) F23K :: 4.07
40) F1W :: 5.2
41) E15L :: 2.12
42) E11I :: 2.39
43) S6V :: 2.48
44) L8V :: 3.01
45) F23S :: 4.12
46) N5T :: 2.77
47) A18F :: 2.67
48) S24I :: 2.19
49) E4S :: 2.44
50) V2N :: 5.25
51) N16F :: 2.81
52) H22A :: 3.21
53) F23C :: 3.19
54) G13E :: 3.41
55) D17R :: 2.24
56) E4H :: 2.5
57) S7R :: 2.13
58) A3L :: 2.95
59) P10I :: 3.23
60) H9L :: 2.96
61) A18Y :: 2.23
62) H9M :: 3.08
63) T19M :: 2.73
64) F1A :: 4.81
65) S24A :: 3.55
66) E11K :: 2.35
67) H22P :: 3.19
68) V2I :: 4.44
69) S6E :: 4.05
70) H9V :: 3.03
71) S7E :: 4.06
72) Q14T :: 2.99
73) S6P :: 2.58
74) D17W :: 1.92
75) L8N :: 3.65
76) F23V :: 3.59
77) V2M :: 4.87
78) S20P :: 2.54
79) F1D :: 5.78
80) S12N :: 3.05
81) Q14V :: 3.2

Every entry's value here was drawn from the supplement of paper PMC10567573.
